tested on: LOX IMVI melanoma; assay: NCI tumour cell line growth inhibition, 48 h
Answer each item with its documented TGI.
Give just the number in µM; leave the unit off.

Ask | What does the record list as TGI for `COC(=O)C/C(C)=C/[C@@H](O)[C@H]1O[C@@H]2CC/C(Cl)=C/C/C=C(/C)[C@H](OC(C)=O)CC(=O)O[C@@H]1C2` ?
Reply | 11.2

Ask | Ok, now `Cc1ccc(C2=[N+]([O-])c3ccccc3C2=O)cc1`
Reply | 31.2

Ask | Now try `CCOC(=O)c1sc2ncn(Cc3cccc(Cl)c3)c(=O)c2c1C` .
Reply | 27.8

Ask | Same thing, different compound: CC(C)(C)[Si](C)(C)OC1[C@@H](O[Si](C)(C)C(C)(C)C)[C@@H](CNC(=O)NC(=O)NC(=O)CI)O[C@H]1n1cnc2c(NC(=O)Nc3ccccc3)ncnc21 (some centres not stated)
Reply | 0.155

Ask | Would you kindly repeat that for `C=C1C(=O)O[C@H]2[C@H]1CC/C(COC(=O)/C=C/c1cccnc1)=C\CC[C@@]1(C)O[C@@H]21` ?
Reply | 2.93

Ask | Let us now turn to `O=C(CSc1nc2ccc([N+](=O)[O-])cc2[nH]1)Nc1cccc(C(F)(F)F)c1`
Reply | 13

Ask | // repeat for `O=c1oc2ccccc2c(Cl)c1Cl` and report
Reply | 12.4

Ask | How about `CCN(Cc1ccc(F)cc1F)c1ccc(CO)c(Cl)c1` ?
Reply | 29

Ask | Same thing, different compound: `CC[N+](C)(C)c1ccc(C(=C2C=CC(=[N+](C)C)C=C2)c2ccc(N(C)C)cc2)cc1`
Reply | 24.2

Ask | Thanks! And CC1=C(C(=O)Nc2ccc(F)c(Cl)c2)C(c2cccc(O)c2)NC(=S)N1 (configuration not stated) ?
Reply | 41

Ask | Subsequent entry: `CC(C)/C(Cl)=N/OC(NC(=O)Nc1ccc(Cl)c(Cl)c1)(C(F)(F)F)C(F)(F)F`
Reply | 14.7

Ask | Another compound to look at: `CCNCCNc1cc(-c2ccc(Cl)cc2)c(C#N)c2nc3ccccc3n12`
Reply | 2.93

Ask | Request: `COC(=O)/N=[N+](\[O-])C(c1ccc(Cl)cc1)c1ccc(Cl)cc1`
Reply | 43.6

Ask | Record: `Cc1c2[nH]c3ccc(Br)cc3c2c(C)c2[nH]ccc(=O)c12`
Reply | 32.7

Ask | Then what about the compound `O=C(c1ccccc1)c1ccc2cccc(O)c2n1` ?
Reply | 28

Ask | Can you check `Cc1cccc(/C=N/NC(=S)NC2CCCCC2)n1` next?
Reply | 99

Ask | Next record, please: `COc1ccc(C[C@H]2NC[C@H](OC(C)=O)[C@H]2OC(C)=O)cc1`
Reply | 0.331

Ask | Then what about the compound `C[C@@H](Oc1cc(-c2cnn(C3CCNCC3)c2)cnc1N)c1c(Cl)ccc(F)c1Cl` ?
Reply | 2.64

Ask | Another compound to look at: `COc1ccc(C(=O)c2cc(OC)c(OC)c(OC)c2)cc1/C=C/C(=O)c1ccc(O)cc1`
Reply | 3.9
